Record form. Attribute: GRmax. Fill in for each entry.
tested on: MCF-7 cells; test: Resazurin-based cell viability assay, monotherapy drug screen; set-up: species or system human; settings: MCF-7; drug efficacy at highest tested dose (<0 cytotoxic, 0 cytostatic, >0 partial growth inhibition)
Answers are plain numbers.

CC(C)C[C@H](NC(=O)[C@@H](NC(=O)c1cccc(-c2ccccc2)n1)[C@@H](C)O)B(O)O −0.28
N.N.O=C([O-])C1(C(=O)[O-])CCC1.[Pt+2] −0.15
CC(C)C[C@H](NC(=O)CNC(=O)c1cc(Cl)ccc1Cl)B(O)O −0.29

Your task in this section: give GRmax for each listed record.
1. CC(C)C[C@H](NC(=O)CNC(=O)c1cc(Cl)ccc1Cl)B1OC(=O)C(CC(=O)O)(CC(=O)O)O1
2. CC(=O)O[C@@]12CO[C@@H]1C[C@H](O)[C@@]1(C)C(=O)[C@H](O)C3=C(C)[C@@H](OC(=O)[C@H](O)[C@@H](NC(=O)OC(C)(C)C)c4ccccc4)C[C@@](O)([C@@H](OC(=O)c4ccccc4)[C@H]21)C3(C)C

Reply text:
1. −0.48
2. −0.44
